system: A549; assay: NCI tumour cell line growth inhibition, 48 h
Calls of active or inactive are those of the source. Rule as the data show it: active = GI50 up to about 1.1 µM and inactive = higher.
Measured GI50 accompanies every entry in the list below.

Cc1ccc(S(=O)(=O)N/N=C/CN2C(=O)c3ccccc3C2=O)cc1 = > 100 µM (inactive)
Cc1cc2nnn(C3CCCCO3)c2cc1C (stereo not drawn) = > 100 µM (inactive)
CCOC(=O)c1cc(-c2ccn(C(C)=O)c2)c(-c2cc(C)co2)[nH]1 = > 100 µM (inactive)

For O=C1c2ccccc2C(=O)N1n1c(Cc2ccc([N+](=O)[O-])cc2)n[nH]c1=O , what is its reported GI50?
> 100 µM (inactive)

Report GI50 for O=C1C(=C(C(=O)c2ccccc2)C(=O)c2ccccc2)OC(c2ccccc2)=C1C(=O)c1ccccc1 please.
9.04 µM (inactive)

Using the record for N=C(N)CCNC(=O)C1CCC(N)=N1 (stereo not drawn) , report its GI50.
6.49 µM (inactive)

I would be grateful if you could share the reported GI50 for COc1ccc(-c2c(C#N)c(S)n(NS(=O)(=O)c3ccc(C)cc3)c(=O)c2C#N)cc1 .
27.5 µM (inactive)

Which value of GI50 has been reported for CC(C)(C)[Si](OC1CCOC1=O)(c1ccccc1)c1ccccc1 (stereo not drawn) in the records?
15.2 µM (inactive)
